assay: Acute toxicity (LD50) in mice; assay type: in vivo; conditions: mouse, in vivo, iv
measured quantity: LD50 (mg/kg)

• Nc1nc2c(ncn2[C@H]2C[C@H](O)[C@@H](CO)O2)c(=O)o1 [2'-deoxyoxanosine] = 200
